Give TGI for every item shown.
- Tested on: DMS 273 small cell lung
- Test Description: NCI tumour cell line growth inhibition, 48 h
Answers are plain numbers, in µM.

Example cases with answers are listed next.
>  <Compound>
CCC1CN2CCc3cc(OC)c(OC)cc3C2CC1CC1c2cc(OC)c(OC)cc2CCN1C(=O)CNC(=O)OC(C)(C)C (stereo not given)

>  <Unit Text>
µM

>  <TGI>
37.8

$$$$
>  <Compound>
CC(=O)Oc1ccccc1C(=O)C1c2cccc(O)c2C(=O)c2c(O)cccc21

>  <Unit Text>
µM

>  <TGI>
3.8

$$$$
>  <Compound>
CN(C)c1ccc(/C=C/c2cc[n+](C)c3ccccc23)cc1

>  <Unit Text>
µM

>  <TGI>
10.8

$$$$

Request: Data request, read-out TGI, for COC(=O)[C@@]12OC[C@]34C([C@@H](O)C1O)[C@@]1(C)CC(=O)C(O)=C(C)C1C[C@H]3OC(=O)[C@H](OC(=O)CC(C)C(F)(F)F)[C@H]42 (stereo not given in full)
Result: 0.0426

Just for reference, PubChem BioAssay (NCI) is where these values come from.
